test_target: R878K mutated mAPA (Mus musculus, UniProt P16406, R878K)
Construct: made in house; host or cells: stably transfected CHO-K1 cells
Sequence (P16406 1-945 R878K): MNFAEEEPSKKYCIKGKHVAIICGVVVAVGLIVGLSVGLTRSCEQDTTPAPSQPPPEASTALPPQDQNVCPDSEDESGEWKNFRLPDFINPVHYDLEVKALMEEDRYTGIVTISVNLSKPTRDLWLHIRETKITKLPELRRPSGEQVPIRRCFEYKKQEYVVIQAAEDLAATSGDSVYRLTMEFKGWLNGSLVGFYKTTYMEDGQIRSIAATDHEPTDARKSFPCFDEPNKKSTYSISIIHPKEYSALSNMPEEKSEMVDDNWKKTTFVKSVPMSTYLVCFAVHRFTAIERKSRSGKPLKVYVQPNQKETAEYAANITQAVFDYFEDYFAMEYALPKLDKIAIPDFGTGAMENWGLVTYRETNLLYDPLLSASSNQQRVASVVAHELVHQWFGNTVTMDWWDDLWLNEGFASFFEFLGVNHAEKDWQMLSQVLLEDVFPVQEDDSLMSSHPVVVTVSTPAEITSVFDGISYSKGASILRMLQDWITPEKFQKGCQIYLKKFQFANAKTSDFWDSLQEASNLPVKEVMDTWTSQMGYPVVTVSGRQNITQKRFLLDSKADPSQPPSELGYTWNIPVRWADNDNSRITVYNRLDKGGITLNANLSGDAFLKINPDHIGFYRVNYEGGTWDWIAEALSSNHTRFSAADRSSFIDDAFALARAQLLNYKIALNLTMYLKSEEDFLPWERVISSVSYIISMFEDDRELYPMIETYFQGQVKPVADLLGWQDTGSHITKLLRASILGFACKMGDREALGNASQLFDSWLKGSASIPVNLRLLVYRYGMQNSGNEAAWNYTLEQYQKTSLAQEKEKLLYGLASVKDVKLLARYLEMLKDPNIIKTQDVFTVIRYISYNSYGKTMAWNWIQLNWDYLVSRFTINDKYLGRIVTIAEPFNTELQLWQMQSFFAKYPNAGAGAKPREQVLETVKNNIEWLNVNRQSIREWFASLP
assay_method_text: Kinetic parameters of substrate hydrolysis by R878K His-mAPA
Type: biochemical
test_settings: no Ca2+

{"columns": ["molecule", "kcat"],
 "data": [
  ["C[C@H](N)C(=O)Nc1ccc2ccccc2c1 [HAlaβNA, α-L-alanine-β-naphthylamide]", "27.1 ± 4.8 s⁻¹"],
  ["NCCCC[C@H](N)C(=O)Nc1ccc2ccccc2c1 [HLysβNA, α-L-lysine-β-naphthylamide]", "9.0 ± 0.5 s⁻¹"],
  ["N[C@@H](CC(=O)O)C(=O)Nc1ccc2ccccc2c1 [HAspβNA, α-L-aspartate-β-naphthylamide]", "0.2 ± 0.01 s⁻¹"],
  ["N[C@@H](CCC(=O)O)C(=O)Nc1ccc2ccccc2c1 [HGluβNA, α-L-glutamyl-β-naphthylamide]", "3.12 ± 0.4 s⁻¹"]
]}

###

test_target: R878A mutated mAPA (Mus musculus, UniProt P16406, R878A)
Construct: made in house; host or cells: stably transfected CHO-K1 cells
assay_method_text: Kinetic parameters of substrate hydrolysis by R878A His-mAPA
Type: biochemical
test_settings: no Ca2+

{"columns": ["compound", "quantity_unit", "kcat"],
 "data": [
  ["N[C@@H](CC(=O)O)C(=O)Nc1ccc2ccccc2c1 [HAspβNA, α-L-aspartate-β-naphthylamide]", "s⁻¹", 1.89],
  ["C[C@H](N)C(=O)Nc1ccc2ccccc2c1 [HAlaβNA, α-L-alanine-β-naphthylamide]", "s⁻¹", 12.6],
  ["N[C@@H](CCC(=O)O)C(=O)Nc1ccc2ccccc2c1 [HGluβNA, α-L-glutamyl-β-naphthylamide]", "s⁻¹", 4.95],
  ["NCCCC[C@H](N)C(=O)Nc1ccc2ccccc2c1 [HLysβNA, α-L-lysine-β-naphthylamide]", "s⁻¹", 13.8]
]}

###

test_target: wild-type mAPA (Mus musculus)
Construct: made in house; host or cells: stably transfected CHO-K1 cells
assay_method_text: Inhibition of GluNA hydrolysis by purified recombinant wild-type His-mAPA
Assay type: biochemical
test_settings: wild-type mAPA; 4 mM Ca2+; 0.5 mM GluNA; read-out: Ki
pKi: −log10 of the molar value.
pKi for assorted molecules

{"columns": ["molecule", "pKi"],
 "data": [
  ["N[C@H](CS)CCC(=O)O [GluSH, (4S)-4-amino-5-sulfanylpentanoic acid]", 6.50],
  ["CSCC[C@H](N)CS [MetSH]", 5.04],
  ["N[C@H](CS)CCS(=O)(=O)O [EC33]", 6.57],
  ["NCCCC[C@H](N)CS [LysSH, (2S)-2,6-diaminohexane-1-thiol]", 4.87]
]}

###

test_target: R878K mutated mAPA (Mus musculus, UniProt P16406, R878K)
Construct: made in house; host or cells: stably transfected CHO-K1 cells
assay_method_text: Kinetic parameters of substrate hydrolysis by R878K His-mAPA
Assay type: biochemical
test_settings: 4 mM Ca2+
Description: Enzyme assays were carried out for wild-type and mutated His-mAPAs in 50 mM Tris-HCl buffer, pH 7.4, with or without 4 mM CaCl2, by monitoring the rate of hydrolysis of GluNA, as previously described. […] The kinetic curves were monitored by following the increase in fluorescence at 460 nm (lex = 330 nm), induced by the release of the β-naphthylamide fluorogenic part of the substrate by APA. […]
Reported Km values are given for each entry in this list.
measure: Km (µM)

{"columns": ["compound", "measure", "measurement"],
 "data": [
  ["C[C@H](N)C(=O)Nc1ccc2ccccc2c1 [HAlaβNA, α-L-alanine-β-naphthylamide]", "Km", 821],
  ["N[C@@H](CC(=O)O)C(=O)Nc1ccc2ccccc2c1 [HAspβNA, α-L-aspartate-β-naphthylamide]", "Km", 202],
  ["N[C@@H](CCC(=O)O)C(=O)Nc1ccc2ccccc2c1 [HGluβNA, α-L-glutamyl-β-naphthylamide]", "Km", 269],
  ["NCCCC[C@H](N)C(=O)Nc1ccc2ccccc2c1 [HLysβNA, α-L-lysine-β-naphthylamide]", "Km", 229]
]}

###

Measured kcat by item
test_target: R878A mutated mAPA (Mus musculus, UniProt P16406, R878A)
Construct: made in house; host or cells: stably transfected CHO-K1 cells
assay_method_text: Kinetic parameters of substrate hydrolysis by R878A His-mAPA
Assay type: biochemical
test_settings: 4 mM Ca2+
Experimental: Enzyme assays were carried out for wild-type and mutated His-mAPAs in 50 mM Tris-HCl buffer, pH 7.4, with or without 4 mM CaCl2, by monitoring the rate of hydrolysis of GluNA, as previously described. […] The kinetic curves were monitored by following the increase in fluorescence at 460 nm (lex = 330 nm), induced by the release of the β-naphthylamide fluorogenic part of the substrate by APA. […]

{"columns": ["compound", "quantity_unit", "kcat"],
 "data": [
  ["C[C@H](N)C(=O)Nc1ccc2ccccc2c1 [HAlaβNA, α-L-alanine-β-naphthylamide]", "s⁻¹", 41.5],
  ["NCCCC[C@H](N)C(=O)Nc1ccc2ccccc2c1 [HLysβNA, α-L-lysine-β-naphthylamide]", "s⁻¹", 11.6],
  ["N[C@@H](CC(=O)O)C(=O)Nc1ccc2ccccc2c1 [HAspβNA, α-L-aspartate-β-naphthylamide]", "s⁻¹", 17.9],
  ["N[C@@H](CCC(=O)O)C(=O)Nc1ccc2ccccc2c1 [HGluβNA, α-L-glutamyl-β-naphthylamide]", "s⁻¹", 22.4]
]}

###

Measured kcat, listed per entry.
test_target: wild-type mAPA (Mus musculus, UniProt P16406)
Construct: made in house; host or cells: stably transfected CHO-K1 cells
Sequence (P16406 1-945): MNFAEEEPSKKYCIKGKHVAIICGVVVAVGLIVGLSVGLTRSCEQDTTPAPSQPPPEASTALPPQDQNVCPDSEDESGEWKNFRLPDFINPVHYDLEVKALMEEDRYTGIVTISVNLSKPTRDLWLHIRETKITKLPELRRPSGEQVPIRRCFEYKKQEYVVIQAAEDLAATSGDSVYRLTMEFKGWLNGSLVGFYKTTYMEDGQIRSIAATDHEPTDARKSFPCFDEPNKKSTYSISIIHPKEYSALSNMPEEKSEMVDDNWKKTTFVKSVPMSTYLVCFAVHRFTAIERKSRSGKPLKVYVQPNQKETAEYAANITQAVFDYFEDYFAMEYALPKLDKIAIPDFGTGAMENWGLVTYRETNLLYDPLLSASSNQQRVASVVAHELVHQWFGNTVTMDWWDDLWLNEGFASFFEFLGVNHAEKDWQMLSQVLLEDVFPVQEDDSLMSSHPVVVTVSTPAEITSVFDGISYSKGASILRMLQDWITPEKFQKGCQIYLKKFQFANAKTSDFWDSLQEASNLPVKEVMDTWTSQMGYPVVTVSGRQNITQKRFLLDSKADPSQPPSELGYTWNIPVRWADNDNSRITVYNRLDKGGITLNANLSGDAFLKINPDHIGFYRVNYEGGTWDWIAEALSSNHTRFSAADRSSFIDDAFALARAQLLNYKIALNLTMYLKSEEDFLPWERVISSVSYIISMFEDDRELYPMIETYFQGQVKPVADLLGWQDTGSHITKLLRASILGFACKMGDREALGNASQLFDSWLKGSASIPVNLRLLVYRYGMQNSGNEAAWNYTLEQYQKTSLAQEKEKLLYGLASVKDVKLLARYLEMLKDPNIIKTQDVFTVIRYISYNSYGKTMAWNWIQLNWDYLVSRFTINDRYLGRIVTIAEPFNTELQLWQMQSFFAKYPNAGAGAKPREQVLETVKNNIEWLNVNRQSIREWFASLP
assay_method_text: Kinetic parameters of substrate hydrolysis by wild-type His-mAPA
Assay type: biochemical
test_settings: wild type mAPA; 4 mM Ca2+

{"columns": ["molecule", "test_target", "quantity_unit", "kcat"],
 "data": [
  ["N[C@@H](CC(=O)O)C(=O)Nc1ccc2ccccc2c1 [HAspβNA, α-L-aspartate-β-naphthylamide]", "wild-type mAPA (Mus musculus, UniProt P16406)", "s⁻¹", 68.1],
  ["NCCCC[C@H](N)C(=O)Nc1ccc2ccccc2c1 [HLysβNA, α-L-lysine-β-naphthylamide]", "wild-type mAPA (Mus musculus, UniProt P16406)", "s⁻¹", 25.8],
  ["C[C@H](N)C(=O)Nc1ccc2ccccc2c1 [HAlaβNA, α-L-alanine-β-naphthylamide]", "wild-type mAPA (Mus musculus, UniProt P16406)", "s⁻¹", 17.4],
  ["N[C@@H](CCC(=O)O)C(=O)Nc1ccc2ccccc2c1 [HGluβNA, α-L-glutamyl-β-naphthylamide]", "wild-type mAPA (Mus musculus, UniProt P16406)", "s⁻¹", 81.7]
]}
